Target: 3-phosphoinositide-dependent protein kinase 1 (Homo sapiens)
Conditions: at 1 µM
metric: residual activity (%)

{"givenSmiles": "Oc1ccc(Nc2nc(-c3ccc(Cl)cc3)cs2)cc1", "metric": "residual activity", "measurement": 115}
{"givenSmiles": "C[C@@H](N)[C@H]1CC[C@H](C(=O)Nc2ccncc2)CC1", "metric": "residual activity", "measurement": 95}
{"givenSmiles": "CC(C)n1cnc2/c(=N/c3cccc(Cl)c3)nc(NCCO)[nH]c21", "metric": "residual activity", "measurement": 96}
{"givenSmiles": "CO[C@H]1[C@@H](OC)C[C@H](C)[C@@H](OC)C2=CC(=O)C=C(NC(=O)/C(C)=C/C=C/[C@H](OC)[C@@H](OC(N)=O)/C(C)=C/[C@@H]1C)C2=O", "metric": "residual activity", "measurement": 112}
{"givenSmiles": "Cc1ccc(NC2=CC(=O)c3sc(C)nc3C2=O)cc1", "metric": "residual activity", "measurement": 99}
{"givenSmiles": "Cn1cnc2cc3c(Nc4cccc(Br)c4)ncnc3cc21", "metric": "residual activity", "measurement": 106}
{"givenSmiles": "CCOc1cc2ncnc(Nc3cccc(Br)c3)c2cc1OCC", "metric": "residual activity", "measurement": 104}
{"givenSmiles": "Nc1cccc(-c2cc3c(Oc4cccc(O)c4)ncnc3[nH]2)c1", "metric": "residual activity", "measurement": 92}
{"givenSmiles": "Cc1nc2cc3nc(-c4cccs4)cnc3cc2n1C", "metric": "residual activity", "measurement": 109}
{"givenSmiles": "COc1ccc(S(=O)(=O)N(CCO)c2ccccc2CN(C)C/C=C/c2ccc(Cl)cc2)cc1", "metric": "residual activity", "measurement": 119}
{"givenSmiles": "Cc1ccc(S(=O)(=O)/C=C/C#N)cc1", "metric": "residual activity", "measurement": 105}
{"givenSmiles": "O=c1c2ccccc2[nH]c(=S)n1CCN1CCC(=C(c2ccc(F)cc2)c2ccc(F)cc2)CC1", "metric": "residual activity", "measurement": 116}
{"givenSmiles": "CC[n+]1c(/C=C/N(C)c2ccccc2)n(-c2ccccc2)c2ccc(-c3nc4ccccc4s3)cc21", "metric": "residual activity", "measurement": 121}
{"givenSmiles": "CN(C)c1ccc(/C=C2\\C(=O)Nc3ccccc32)cc1", "metric": "residual activity", "measurement": 114}
{"givenSmiles": "Oc1ccc(-c2nc(-c3ccc(F)cc3)c(-c3ccncc3)[nH]2)cc1", "metric": "residual activity", "measurement": 108}
{"givenSmiles": "CO[C@H]1C[C@@H]2CC[C@@H](C)[C@@](O)(O2)C(=O)C(=O)N2CCCC[C@H]2C(=O)O[C@H]([C@H](C)C[C@@H]2CC[C@@H](O)[C@H](OC)C2)CC(=O)[C@H](C)/C=C(\\C)[C@@H](O)[C@@H](OC)C(=O)[C@H](C)C[C@H](C)/C=C/C=C/C=C/1C", "metric": "residual activity", "measurement": 117}
{"givenSmiles": "O=C1NC(=O)c2c1c1c3ccccc3[nH]c1c1[nH]c3cc(Br)ccc3c21", "metric": "residual activity", "measurement": 75}
{"givenSmiles": "Cn1nc2c3c(cccc31)C(=O)c1ccccc1-2", "metric": "residual activity", "measurement": 95}
{"givenSmiles": "O=C1NC(=O)c2cc(Nc3ccc(F)cc3)c(Nc3ccc(F)cc3)cc21", "metric": "residual activity", "measurement": 106}
